# Target: HIV-1 Env of isolate MGRM-G-004 (subtype G), on pseudovirus (HIV-1)
# Run description: cell-based or functional assay
Attribute measured: IC50 (µg/mL), neutralization of pseudovirus

PGT-136 (antibody, V domains shown) VH: QLQLQESGPGLVKPSETLSLTCTVSGGSMRGTDWGENDFHYGWIRQSSAKGLEWIGSIHWRGRTTHYKTSFRSRATLSIDTSNNRFSLTFSFVTAADTAVYYCARHKYHDIFRVVPVAGWFDPWGQGLLVTVSS VL: EIVMTQSPPTLSVSPGETATLSCRASQNVKNNLAWYQLKPGQAPRLLIFDASSRAGGIPDRFSGSGYGTDFTLTVNSVQSEDFGDYFCQQYEEWPRTFGQGTKVDIK; > 50 µg/mL

# get_value(readout='IC50 (µg/mL), neutralization of pseudovirus', item= PGT-128 (antibody, V domains shown) VH: QPQLQESGPTLVEASETLSLTCAVSGDSTAACNSFWGWVRQPPGKGLEWVGSLSHCASYWNRGWTYHNPSLKSRLTLALDTPKNLVFLKLNSVTAADTATYYCARFGGEVLRYTDWPKPAWVDLWGRGTLVTVSS VL: QSALTQPPSASGSPGQSITISCTGTSNNFVSWYQQHAGKAPKLVIYDVNKRPSGVPDRFSGSKSGNTASLTVSGLQTDDEAVYYCGSLVGNWDVIFGGGTKLTVL )
> 50 µg/mL
